target: D1 (Homo sapiens); test: NIMH PDSP radioligand competition binding, D1; details: Binding Affinity (Ki, nM), [3H]SCH23390, cloned human receptor
Sequence (P21728 whole entry): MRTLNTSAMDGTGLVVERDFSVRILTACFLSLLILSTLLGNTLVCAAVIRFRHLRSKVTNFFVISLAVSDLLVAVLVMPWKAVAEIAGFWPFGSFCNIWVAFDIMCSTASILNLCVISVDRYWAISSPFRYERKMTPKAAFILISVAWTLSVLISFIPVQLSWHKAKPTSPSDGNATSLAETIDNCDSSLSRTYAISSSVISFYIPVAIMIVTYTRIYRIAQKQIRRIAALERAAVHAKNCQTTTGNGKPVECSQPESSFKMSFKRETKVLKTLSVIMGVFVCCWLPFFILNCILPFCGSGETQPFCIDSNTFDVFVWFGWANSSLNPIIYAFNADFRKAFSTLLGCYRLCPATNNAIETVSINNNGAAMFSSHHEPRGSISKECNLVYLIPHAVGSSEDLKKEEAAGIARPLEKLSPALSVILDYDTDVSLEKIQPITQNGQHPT
attribute_measured: Ki

compound	Ki
C=CCN(CC=C)CCc1c(C)[nH]c2ccc(OC)cc12 [5-MeO-2-Me-DALT, 5-methoxy-2-methyl-N,N-diallyltryptamine]	> 10000 nM

QUERY: Quick check: Ki of C=CCN(CC=C)CCc1c(-c2ccccc2)[nH]c2ccccc12 [2-Ph-DALT, 2-phenyl-N,N-diallyltryptamine] ?
RESULT: 2790 nM

QUERY: # iterate: C=CCN(CC=C)CCc1c[nH]c2cccc(O)c12 [4-HO-DALT, 4-hydroxy-N,N-diallyltryptamine]
RESULT: > 10000 nM

QUERY: # iterate: C=CCN(CC=C)CCc1c[nH]c2cccc(OC(C)=O)c12 [4-AcO-DALT, 4-acetoxy-N,N-diallyltryptamine]
RESULT: > 10000 nM

QUERY: # iterate: C=CCN(CC=C)CCc1c[nH]c2c(CC)cccc12 [7-Et-DALT, 7-ethyl-N,N-diallyltryptamine]
RESULT: > 10000 nM

QUERY: # iterate: C=CCN(CC=C)CCc1c(C)[nH]c2ccc(F)cc12 [5-F-2-Me-DALT, 5-fluoro-2-methyl-N,N-diallyltryptamine]
RESULT: > 10000 nM

###

The next entries give measured pKi for D3 (Homo sapiens, UniProt P35462).
Please express pKi as -log10 of the molar concentration.

See these solved cases before continuing.
molecule	assayed_system	pKi
C=CCN(CC=C)CCc1c(C)[nH]c2ccc(F)cc12	D3 (Homo sapiens, UniProt P35462)	6.38
C=CCN(CC=C)CCc1c[nH]c2c(CC)cccc12	D3 (Homo sapiens, UniProt P35462)	5.97
C=CCN(CC=C)CCc1c(C)[nH]c2ccc(OC)cc12	D3 (Homo sapiens, UniProt P35462)	5.62

QUERY: Quick check: pKi of C=CCN(CC=C)CCc1c(-c2ccccc2)[nH]c2ccccc12 ?
RESULT: 6.47

QUERY: # iterate: C=CCN(CC=C)CCc1c[nH]c2cccc(O)c12 [4-HO-DALT, 4-hydroxy-N,N-diallyltryptamine]
RESULT: 5.80

###

Target: 5-HT2C (Homo sapiens)
Sequence (P28335 33-458): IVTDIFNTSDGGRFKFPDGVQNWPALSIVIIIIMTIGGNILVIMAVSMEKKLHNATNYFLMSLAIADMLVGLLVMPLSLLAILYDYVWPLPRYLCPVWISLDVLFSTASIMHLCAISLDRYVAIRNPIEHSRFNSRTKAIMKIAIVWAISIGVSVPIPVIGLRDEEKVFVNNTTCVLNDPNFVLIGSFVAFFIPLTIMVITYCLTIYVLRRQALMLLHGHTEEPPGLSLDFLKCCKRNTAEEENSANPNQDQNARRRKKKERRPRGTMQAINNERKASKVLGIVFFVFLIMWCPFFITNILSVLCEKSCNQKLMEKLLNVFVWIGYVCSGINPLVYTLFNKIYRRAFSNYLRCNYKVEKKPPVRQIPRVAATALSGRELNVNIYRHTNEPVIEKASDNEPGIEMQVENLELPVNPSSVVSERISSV
attribute_measured: pKi
Please express pKi as -log10 of the molar concentration.

compound	pKi
C=CCN(CC=C)CCc1c(-c2ccccc2)[nH]c2ccccc12	6.56
C=CCN(CC=C)CCc1c[nH]c2cccc(OC(C)=O)c12	5.82
C=CCN(CC=C)CCc1c[nH]c2cccc(O)c12 [4-HO-DALT, 4-hydroxy-N,N-diallyltryptamine]	5.68

QUERY: Quick check: pKi of C=CCN(CC=C)CCc1c(C)[nH]c2ccc(F)cc12 ?
RESULT: 6.27

QUERY: # iterate: C=CCN(CC=C)CCc1c[nH]c2c(CC)cccc12
RESULT: 6.35
